Test system: 755483-174-R-J1-PDC complex spheroid growth, percent test/control
measurementProtocol: Anticancer human tumor 755483-174-R-J1-PDC patient-derived rhabdomyosarcoma cell line growth inhibition [Asc]
conditions: second compound 0.01 µM; first compound 0.00316 µM; active compounds read low

compound	targetEntity	viability, T/C [%]
COc1c(OCCCN2CCOCC2)ccc2c3n(c(=NC(=O)c4cnc(N)nc4)nc12)CCN3 + CNC(C)C(=O)NC1CN(S(=O)(=O)c2cccc(S(=O)(=O)N3CCC4CCC(C(=O)NC(c5ccccc5)c5ccccc5)N4C(=O)C(NC(=O)C(C)NC)C3)c2)CCC2CCC(C(=O)NC(c3ccccc3)c3ccccc3)N2C1=O	755483-174-R-J1-PDC complex spheroid growth, percent test/control	59.1
O=C(c1ccc(F)c(F)c1Nc1ccc(I)cc1F)N1CC(O)([C@@H]2CCCCN2)C1 + CNC(C)C(=O)NC1CN(S(=O)(=O)c2cccc(S(=O)(=O)N3CCC4CCC(C(=O)NC(c5ccccc5)c5ccccc5)N4C(=O)C(NC(=O)C(C)NC)C3)c2)CCC2CCC(C(=O)NC(c3ccccc3)c3ccccc3)N2C1=O	755483-174-R-J1-PDC complex spheroid growth, percent test/control	49.5
Cn1ncnc1[C@H]1c2n[nH]c(=O)c3cc(F)cc(c23)N[C@@H]1c1ccc(F)cc1 + CNC(C)C(=O)NC1CN(S(=O)(=O)c2cccc(S(=O)(=O)N3CCC4CCC(C(=O)NC(c5ccccc5)c5ccccc5)N4C(=O)C(NC(=O)C(C)NC)C3)c2)CCC2CCC(C(=O)NC(c3ccccc3)c3ccccc3)N2C1=O	755483-174-R-J1-PDC complex spheroid growth, percent test/control	45.5
NC1CCC(NC2CC2c2ccccc2)CC1 (stereo not given) + CNC(C)C(=O)NC1CN(S(=O)(=O)c2cccc(S(=O)(=O)N3CCC4CCC(C(=O)NC(c5ccccc5)c5ccccc5)N4C(=O)C(NC(=O)C(C)NC)C3)c2)CCC2CCC(C(=O)NC(c3ccccc3)c3ccccc3)N2C1=O	755483-174-R-J1-PDC complex spheroid growth, percent test/control	36.8
CCN1CCN(Cc2ccc(Nc3ncc(F)c(-c4cc(F)c5nc(C)n(C(C)C)c5c4)n3)nc2)CC1 + CNC(C)C(=O)NC1CN(S(=O)(=O)c2cccc(S(=O)(=O)N3CCC4CCC(C(=O)NC(c5ccccc5)c5ccccc5)N4C(=O)C(NC(=O)C(C)NC)C3)c2)CCC2CCC(C(=O)NC(c3ccccc3)c3ccccc3)N2C1=O	755483-174-R-J1-PDC complex spheroid growth, percent test/control	31.1

====

Listing of recorded viability, T/C by entry.
Test system: 755483-174-R-J1-PDC complex spheroid growth, percent test/control
measurementProtocol: Anticancer human tumor 755483-174-R-J1-PDC cell line growth inhibition [Asc];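 further: spheroids exposed to compounds for seven days before readout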
conditions: second compound 0.03 µM; first compound 0.0316 µM; active compounds read low

compound	viability, T/C
O=C(c1ccc(F)c(F)c1Nc1ccc(I)cc1F)N1CC(O)([C@@H]2CCCCN2)C1 + CCN1C(C(=O)NC23CCC(C(=O)O)(CC2)CC3)C(c2cccc(Cl)c2F)C2(C(=O)Nc3cc(Cl)ccc32)C12CCCCC2	95.4%
C=C(F)C(=O)N1CCN(c2nc(OCC3CCCN3C)nc3c2CCN(c2cccc4cccc(Cl)c24)C3)CC1CC#N (stereo not given) + CCN1C(C(=O)NC23CCC(C(=O)O)(CC2)CC3)C(c2cccc(Cl)c2F)C2(C(=O)Nc3cc(Cl)ccc32)C12CCCCC2	81%
NC1CCC(NC2CC2c2ccccc2)CC1 (stereo not given) + CCN1C(C(=O)NC23CCC(C(=O)O)(CC2)CC3)C(c2cccc(Cl)c2F)C2(C(=O)Nc3cc(Cl)ccc32)C12CCCCC2	87%
CCN1CCN(Cc2ccc(Nc3ncc(F)c(-c4cc(F)c5nc(C)n(C(C)C)c5c4)n3)nc2)CC1 + CCN1C(C(=O)NC23CCC(C(=O)O)(CC2)CC3)C(c2cccc(Cl)c2F)C2(C(=O)Nc3cc(Cl)ccc32)C12CCCCC2	112%
Cn1ncnc1[C@H]1c2n[nH]c(=O)c3cc(F)cc(c23)N[C@@H]1c1ccc(F)cc1 + CCN1C(C(=O)NC23CCC(C(=O)O)(CC2)CC3)C(c2cccc(Cl)c2F)C2(C(=O)Nc3cc(Cl)ccc32)C12CCCCC2	45.9%
